The measurements presented in this section are drawn from PubChem BioAssay AID2060601.

System: 874868-142-R-J2-PDC complex spheroids, growth % test/control
experiment.notes: Anticancer human tumor 874868-142-R-J2-PDC patient-derived head and neck squamous carcinoma cell line growth inhibition [CLK]
cond: second compound 10 µM; first compound 0.00316 µM; hits give low values
viability, T/C values, listed per item
Output spec: scalar in %, unitless text.

Cn1ncnc1[C@H]1c2n[nH]c(=O)c3cc(F)cc(c23)N[C@@H]1c1ccc(F)cc1 + CNC(=O)c1ccc(Nc2nc(OC3CCCC3)c3c(-c4ccc5nc(C)oc5c4)c[nH]c3n2)c(OC)c1    39.4
COc1c(OCCCN2CCOCC2)ccc2c3n(c(=NC(=O)c4cnc(N)nc4)nc12)CCN3 + CN1CCN(c2cc(C(=O)Nc3cc4cc(-c5cnn(C)c5)ccc4cn3)ccn2)CC1    0.07
CCc1c2c(nc3ccc(O)cc13)-c1cc3c(c(=O)n1C2)COC(=O)[C@]3(O)CC + CNC(=O)c1ccc(Nc2nc(OC3CCCC3)c3c(-c4ccc5nc(C)oc5c4)c[nH]c3n2)c(OC)c1    28.8
CCN1CCN(Cc2ccc(Nc3ncc(F)c(-c4cc(F)c5nc(C)n(C(C)C)c5c4)n3)nc2)CC1 + CNC(=O)c1ccc(Nc2nc(OC3CCCC3)c3c(-c4ccc5nc(C)oc5c4)c[nH]c3n2)c(OC)c1    46.2
CCc1c2c(nc3ccc(O)cc13)-c1cc3c(c(=O)n1C2)COC(=O)[C@]3(O)CC + CN1CCN(c2cc(C(=O)Nc3cc4cc(-c5cnn(C)c5)ccc4cn3)ccn2)CC1    0.07
CCN1CCN(Cc2ccc(Nc3ncc(F)c(-c4cc(F)c5nc(C)n(C(C)C)c5c4)n3)nc2)CC1 + CN1CCN(c2cc(C(=O)Nc3cc4cc(-c5cnn(C)c5)ccc4cn3)ccn2)CC1    0.7

Now examine the next entry.
Entry Cn1ncnc1[C@H]1c2n[nH]c(=O)c3cc(F)cc(c23)N[C@@H]1c1ccc(F)cc1 + CN1CCN(c2cc(C(=O)Nc3cc4cc(-c5cnn(C)c5)ccc4cn3)ccn2)CC1 under 874868-142-R-J2-PDC complex spheroids, growth % test/control had viability, T/C of 0.16

---

Test system: 874868-142-R-J2-PDC complex spheroids, growth % test/control
experiment.notes: Anticancer human tumor 874868-142-R-J2-PDC cell line growth inhibition [CLK];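 further: spheroids exposed to the compounds for 7 days; 100% = DMSO vehicle control viability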
cond: second compound 0.316 µM; first compound 0.1 µM; hits give low values
viability, T/C values, listed per item

CCN1CCN(Cc2ccc(Nc3ncc(F)c(-c4cc(F)c5nc(C)n(C(C)C)c5c4)n3)nc2)CC1 + CN1CCN(c2cc(C(=O)Nc3cc4cc(-c5cnn(C)c5)ccc4cn3)ccn2)CC1    23.1%
CC1COCCN1c1cc(C2(S(C)(=N)=O)CC2)nc(-c2ccnc3[nH]ccc23)n1 (stereo not given) + CN1CCN(c2cc(C(=O)Nc3cc4cc(-c5cnn(C)c5)ccc4cn3)ccn2)CC1    19.8%
CC(CO)NC(=O)c1cc(-c2ccc(Cl)cc2)nn(-c2cnn(C)c2)c1=O (stereo not given) + CNC(=O)c1ccc(Nc2nc(OC3CCCC3)c3c(-c4ccc5nc(C)oc5c4)c[nH]c3n2)c(OC)c1    51.4%
C=CC(=O)N1CCN(c2nc(=O)n(-c3c(C)ccnc3C(C)C)c3nc(-c4c(O)cccc4F)c(F)cc23)C(C)C1 (stereo not given) + CN1CCN(c2cc(C(=O)Nc3cc4cc(-c5cnn(C)c5)ccc4cn3)ccn2)CC1    16.9%

Now examine the next entry.
So for C#Cc1c(F)ccc2cc(O)cc(-c3ncc4c(N5CC6CCC(C5)N6)nc(OCC56CCCN5CC(F)C6)nc4c3F)c12 (stereo not given) + CN1CCN(c2cc(C(=O)Nc3cc4cc(-c5cnn(C)c5)ccc4cn3)ccn2)CC1 , the logged viability, T/C turned out to be 24%

---

Tested on: 874868-142-R-J2-PDC complex spheroids, growth % test/control
experiment.notes: Anticancer human tumor 874868-142-R-J2-PDC cell line growth inhibition [CLK];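 further: spheroids exposed to the compounds for 7 days; 100% = DMSO vehicle control viability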
cond: second compound 0.1 µM; first compound 1 µM; hits give low values
Values of viability, T/C strictly less than 70% map to YES, and values of at least 70% map to NO.

Below, 3 compounds whose answers are already recorded.
O=C(c1cc(Cc2n[nH]c(=O)c3ccccc23)ccc1F)N1CCN(C(=O)C2CC2)CC1 + CN1CCN(c2cc(C(=O)Nc3cc4cc(-c5cnn(C)c5)ccc4cn3)ccn2)CC1    YES
Nc1ccccc1NC(=O)c1ccc(CNC(=O)OCc2cccnc2)cc1 + CN1CCN(c2cc(C(=O)Nc3cc4cc(-c5cnn(C)c5)ccc4cn3)ccn2)CC1    NO
CCc1c2c(nc3ccc(O)cc13)-c1cc3c(c(=O)n1C2)COC(=O)[C@]3(O)CC + CNC(=O)c1ccc(Nc2nc(OC3CCCC3)c3c(-c4ccc5nc(C)oc5c4)c[nH]c3n2)c(OC)c1    YES

Does the reported viability, T/C of COc1c(OCCCN2CCOCC2)ccc2c3n(c(=NC(=O)c4cnc(N)nc4)nc12)CCN3 + CN1CCN(c2cc(C(=O)Nc3cc4cc(-c5cnn(C)c5)ccc4cn3)ccn2)CC1 stay below 70%?
YES

---

Tested on: 874868-142-R-J2-PDC complex spheroids, growth % test/control
experiment.notes: Anticancer human tumor 874868-142-R-J2-PDC cell line growth inhibition [CLK];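 further: spheroids exposed to the compounds for 7 days; 100% = DMSO vehicle control viability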
cond: second compound 0.316 µM; first compound 1 µM; hits give low values
Source text: A high-throughput screen of multi-cell type tumor spheroids was designed to identify active combinations of […] and targeted small molecules. Complex spheroids include a stromal component modeled by human endothelial cells (HUVEC) and fibroblasts modeled by human mesenchymal stem cells (MSCs). […] Compounds. […] If the clinical Cmax for an agent had not been determined, the highest concentration tested was 10 microM. […]
Category | rule: reported viability, T/C within range, see range 1: < 10%; range 2: ≥ 10% and < 40%; range 3: ≥ 40%

Below, 3 compounds whose answers are already recorded.
CC1(C)CCC(CN2CCN(c3ccc(C(=O)NS(=O)(=O)c4ccc(NCC5CCOCC5)c([N+](=O)[O-])c4)c(Oc4cnc5[nH]ccc5c4)c3)CC2)=C(c2ccc(Cl)cc2)C1 + CN1CCN(c2cc(C(=O)Nc3cc4cc(-c5cnn(C)c5)ccc4cn3)ccn2)CC1    range 2
CC(=O)O[C@H]1C(=O)[C@@]2(C)[C@H]([C@H](OC(=O)c3ccccc3)[C@]3(O)C[C@H](OC(=O)[C@H](O)[C@@H](NC(=O)c4ccccc4)c4ccccc4)C(C)=C1C3(C)C)[C@]1(OC(C)=O)CO[C@@H]1C[C@@H]2O + CNC(=O)c1ccc(Nc2nc(OC3CCCC3)c3c(-c4ccc5nc(C)oc5c4)c[nH]c3n2)c(OC)c1    range 3
CC(=O)O[C@H]1C(=O)[C@@]2(C)[C@H]([C@H](OC(=O)c3ccccc3)[C@]3(O)C[C@H](OC(=O)[C@H](O)[C@@H](NC(=O)c4ccccc4)c4ccccc4)C(C)=C1C3(C)C)[C@]1(OC(C)=O)CO[C@@H]1C[C@@H]2O + CN1CCN(c2cc(C(=O)Nc3cc4cc(-c5cnn(C)c5)ccc4cn3)ccn2)CC1    range 1

Where would COc1cccc2c1C(=O)c1c(O)c3c(c(O)c1C2=O)CC(O)(C(=O)CO)CC3OC1CC(N)C(O)C(C)O1 (stereo not given) + CNC(=O)c1ccc(Nc2nc(OC3CCCC3)c3c(-c4ccc5nc(C)oc5c4)c[nH]c3n2)c(OC)c1 land among the classes by reported viability, T/C?
range 1

Where would O=C(c1cc(Cc2n[nH]c(=O)c3ccccc23)ccc1F)N1CCN(C(=O)C2CC2)CC1 + CN1CCN(c2cc(C(=O)Nc3cc4cc(-c5cnn(C)c5)ccc4cn3)ccn2)CC1 land among the classes by reported viability, T/C?
range 2

Where would CCN1CCN(Cc2ccc(Nc3ncc(F)c(-c4cc(F)c5nc(C)n(C(C)C)c5c4)n3)nc2)CC1 + CN1CCN(c2cc(C(=O)Nc3cc4cc(-c5cnn(C)c5)ccc4cn3)ccn2)CC1 land among the classes by reported viability, T/C?
range 3

Where would C=CC(=O)N1CCN(c2nc(=O)n(-c3c(C)ccnc3C(C)C)c3nc(-c4c(O)cccc4F)c(F)cc23)C(C)C1 (stereo not given) + CN1CCN(c2cc(C(=O)Nc3cc4cc(-c5cnn(C)c5)ccc4cn3)ccn2)CC1 land among the classes by reported viability, T/C?
range 2

Where would CC(CO)NC(=O)c1cc(-c2ccc(Cl)cc2)nn(-c2cnn(C)c2)c1=O (stereo not given) + CNC(=O)c1ccc(Nc2nc(OC3CCCC3)c3c(-c4ccc5nc(C)oc5c4)c[nH]c3n2)c(OC)c1 land among the classes by reported viability, T/C?
range 3

Where would CC(CO)NC(=O)c1cc(-c2ccc(Cl)cc2)nn(-c2cnn(C)c2)c1=O (stereo not given) + CN1CCN(c2cc(C(=O)Nc3cc4cc(-c5cnn(C)c5)ccc4cn3)ccn2)CC1 land among the classes by reported viability, T/C?
range 2
